Experiment: Pharmacokinetic analysis in mice with three administration routes (plasma, LC-MS)
Type: in vivo
Settings: mouse, NOD/SCID mice, IV, 17 mg/kg IKE
PROPERTY: Tmax (h)
Give the number; h is assumed, so skip it.

Assign Tmax to the following record: CC(C)Oc1ccc(C(=O)Cn2ccnc2)cc1-n1c(CN2CCN(C(=O)COc3ccc(Cl)cc3)CC2)nc2ccccc2c1=O
0

====

Test: Pharmacokinetic analysis in NCG mice bearing SUDHL6 xenografts (plasma and tumor, LC-MS)
Type: in vivo
Conditions: mouse; tumor tissue, SUDHL6-xenograft NCG mice, single dose 50 mg/kg IP
Procedure: IKE was dissolved in 5% DMSO/95% HBSS at pH 4 to create a 5 mg/mL solution or 3 mg/mL solution. 5% DMSO/95% HBSS at pH 4 was used as vehicle 1. […] NCG mice 6-weeks of age were injected with 10 million SUDHL-6 cells subcutaneously. […] Tumor size was measured by electronic caliper every 2 days and calculated using the formula: 0.5×length×width^2. […] Plasma samples were collected and analyzed as described above. […]
PROPERTY: Tmax (h)
Expressed in h, but write only the number.

Dear colleague, please send me the reported Tmax for CC(C)Oc1ccc(C(=O)Cn2ccnc2)cc1-n1c(CN2CCN(C(=O)COc3ccc(Cl)cc3)CC2)nc2ccccc2c1=O when you can.
3.3

====

Assay: Pharmacokinetic analysis in NCG mice bearing SUDHL6 xenografts (plasma and tumor, LC-MS)
Type: in vivo
Conditions: mouse; plasma, SUDHL6-xenograft NCG mice, single dose 50 mg/kg IP
PROPERTY: Cmax (ng/mL)
Answer format: numeric, ng/mL implied, no suffix.

Name the recorded Cmax of the item CC(C)Oc1ccc(C(=O)Cn2ccnc2)cc1-n1c(CN2CCN(C(=O)COc3ccc(Cl)cc3)CC2)nc2ccccc2c1=O in your answer.
5180

====

Assay: Pharmacokinetic analysis in mice with three administration routes (plasma, LC-MS)
Format: in vivo
Conditions: mouse, NOD/SCID mice, PO, 50 mg/kg IKE
PROPERTY: Cmax (ng/mL)
The reply should be a number in ng/mL, with the unit left off.

Identify Cmax associated with the molecule CC(C)Oc1ccc(C(=O)Cn2ccnc2)cc1-n1c(CN2CCN(C(=O)COc3ccc(Cl)cc3)CC2)nc2ccccc2c1=O [IKE, Imidazole ketone erastin]
5200

====

Experiment: Pharmacokinetic analysis in mice with three administration routes (plasma, LC-MS)
Format: in vivo
Conditions: mouse, NOD/SCID mice, IP, 50 mg/kg IKE
Experimental: NOD/SCID mice 12-weeks of age and ˜28 g weight were weighed before injection and divided into groups of 3 mice per cage. […] After drying, the samples were resuspended in 100 μL of methanol and analyzed on the liquid chromatography mass spectrometry (LC-MS), with each sample analyzed twice. […] Pharmacokinetics (PK) of IKE was assessed using Prism fitted with lognormal of one phase exponential decay.
PROPERTY: Tmax (min)
Use min as the unit, but write only the number.

Tell us which Tmax value is on record for CC(C)Oc1ccc(C(=O)Cn2ccnc2)cc1-n1c(CN2CCN(C(=O)COc3ccc(Cl)cc3)CC2)nc2ccccc2c1=O
18.6

====

Test: Pharmacokinetic analysis in mice with three administration routes (plasma, LC-MS)
Format: in vivo
Details: mouse, NOD/SCID mice, PO, 50 mg/kg IKE
PROPERTY: half-life

# return recorded half-life for entry CC(C)Oc1ccc(C(=O)Cn2ccnc2)cc1-n1c(CN2CCN(C(=O)COc3ccc(Cl)cc3)CC2)nc2ccccc2c1=O [IKE, Imidazole ketone erastin]
57.6 min

====

Test: Pharmacokinetic analysis in mice with three administration routes (plasma, LC-MS)
Format: in vivo
Conditions: mouse, NOD/SCID mice, IP, 50 mg/kg IKE, read-out: Clast
Description: NOD/SCID mice 12-weeks of age and ˜28 g weight were weighed before injection and divided into groups of 3 mice per cage. […] After drying, the samples were resuspended in 100 μL of methanol and analyzed on the liquid chromatography mass spectrometry (LC-MS), with each sample analyzed twice. […] Pharmacokinetics (PK) of IKE was assessed using Prism fitted with lognormal of one phase exponential decay.
PROPERTY: concentration at 8 h (ng/mL)
Kindly provide the numeric value in ng/mL only, without the unit symbol.

Give concentration at 8 h for the following compound: CC(C)Oc1ccc(C(=O)Cn2ccnc2)cc1-n1c(CN2CCN(C(=O)COc3ccc(Cl)cc3)CC2)nc2ccccc2c1=O
1530

====

Experiment: Pharmacokinetic analysis in mice with three administration routes (plasma, LC-MS)
Type: in vivo
Conditions: mouse, NOD/SCID mice, IV, 17 mg/kg IKE
PROPERTY: AUC(0-t)
Give the number first and the unit second.

Please supply the value of reported AUC(0-t) for the item CC(C)Oc1ccc(C(=O)Cn2ccnc2)cc1-n1c(CN2CCN(C(=O)COc3ccc(Cl)cc3)CC2)nc2ccccc2c1=O [IKE, Imidazole ketone erastin]
17 µg·h/mL

====

Assay: Pharmacokinetic analysis in mice with three administration routes (plasma, LC-MS)
Format: in vivo
Details: mouse, NOD/SCID mice, IP, 50 mg/kg IKE
PROPERTY: half-life (h)
# value in h; strip the unit string

# return recorded half-life for input CC(C)Oc1ccc(C(=O)Cn2ccnc2)cc1-n1c(CN2CCN(C(=O)COc3ccc(Cl)cc3)CC2)nc2ccccc2c1=O
1.82

====

Test: Pharmacokinetic analysis in mice with three administration routes (plasma, LC-MS)
Format: in vivo
Settings: mouse, NOD/SCID mice, IV, 17 mg/kg IKE, read-out: Clast
PROPERTY: concentration at 8 h (ng/mL)
Number only, in ng/mL; omit the unit.

Specify measured concentration at 8 h for CC(C)Oc1ccc(C(=O)Cn2ccnc2)cc1-n1c(CN2CCN(C(=O)COc3ccc(Cl)cc3)CC2)nc2ccccc2c1=O [IKE, Imidazole ketone erastin] .
16

====

Assay: Pharmacokinetic analysis in mice with three administration routes (plasma, LC-MS)
Type: in vivo
Settings: mouse, NOD/SCID mice, IV, 17 mg/kg IKE
PROPERTY: half-life (h)
Enter your answer as a number in h; do not include the unit.

Determine from records and report half-life for CC(C)Oc1ccc(C(=O)Cn2ccnc2)cc1-n1c(CN2CCN(C(=O)COc3ccc(Cl)cc3)CC2)nc2ccccc2c1=O [IKE, Imidazole ketone erastin]
1.31

====

Test: Pharmacokinetic analysis in NCG mice bearing SUDHL6 xenografts (plasma and tumor, LC-MS)
Type: in vivo
Conditions: mouse; tumor tissue, SUDHL6-xenograft NCG mice, single dose 50 mg/kg IP
PROPERTY: AUC(0-t) (ng·h/mL)
Hi! Could you send only the number? It should be in ng·h/mL, unit omitted.

Annotate the compound CC(C)Oc1ccc(C(=O)Cn2ccnc2)cc1-n1c(CN2CCN(C(=O)COc3ccc(Cl)cc3)CC2)nc2ccccc2c1=O [IKE, Imidazole ketone erastin] with its measured AUC(0-t).
9860

====

System: U937
Assay: DLBCL cell line sensitivity to IKE (CellTiter-Glo viability, 24 h)
Format: cell-based
Settings: Homo sapiens, U-937; U937, 24 hours; read-out: cell line sensitivity to IKE (IC50 class)
PROPERTY: IC50

# return recorded IC50 for input CC(C)Oc1ccc(C(=O)Cn2ccnc2)cc1-n1c(CN2CCN(C(=O)COc3ccc(Cl)cc3)CC2)nc2ccccc2c1=O [IKE, Imidazole ketone erastin]
> 10 µM

====

Assay: Pharmacokinetic analysis in mice with three administration routes (plasma, LC-MS)
Format: in vivo
Settings: mouse, NOD/SCID mice, IP, 50 mg/kg IKE
PROPERTY: Cmax (ng/mL)
Answer with a number only, understood to be in ng/mL.

Return reported Cmax. Input compound: CC(C)Oc1ccc(C(=O)Cn2ccnc2)cc1-n1c(CN2CCN(C(=O)COc3ccc(Cl)cc3)CC2)nc2ccccc2c1=O
19500

====

Test: Pharmacokinetic analysis in mice with three administration routes (plasma, LC-MS)
Type: in vivo
Details: mouse, NOD/SCID mice, IV, 17 mg/kg IKE
PROPERTY: Cmax (ng/mL)
Respond numerically; units are ng/mL and should not be typed.

Look up Cmax of CC(C)Oc1ccc(C(=O)Cn2ccnc2)cc1-n1c(CN2CCN(C(=O)COc3ccc(Cl)cc3)CC2)nc2ccccc2c1=O and report it.
11400

====

Assay: Pharmacokinetic analysis in NCG mice bearing SUDHL6 xenografts (plasma and tumor, LC-MS)
Type: in vivo
Conditions: mouse; tumor tissue, SUDHL6-xenograft NCG mice, single dose 50 mg/kg IP; read-out: Clast
PROPERTY: concentration at 24 h (ng/mL)
The response must be a number in ng/mL with no trailing unit.

Name the recorded concentration at 24 h of the item CC(C)Oc1ccc(C(=O)Cn2ccnc2)cc1-n1c(CN2CCN(C(=O)COc3ccc(Cl)cc3)CC2)nc2ccccc2c1=O [IKE, Imidazole ketone erastin] in your answer.
283

====

Experiment: Pharmacokinetic analysis in NCG mice bearing SUDHL6 xenografts (plasma and tumor, LC-MS)
Type: in vivo
Conditions: mouse; plasma, SUDHL6-xenograft NCG mice, single dose 50 mg/kg IP
PROPERTY: half-life (h)
Only the number, expressed in h, is required.

Please list half-life recorded for the molecule CC(C)Oc1ccc(C(=O)Cn2ccnc2)cc1-n1c(CN2CCN(C(=O)COc3ccc(Cl)cc3)CC2)nc2ccccc2c1=O [IKE, Imidazole ketone erastin]
1.83
